All figures here come from PubChem BioAssay (NCI).

growth: recorded values
tested on: IGROV1 ovarian; assay: NCI-60 one-dose screen, 48 h (100 = growth as untreated, 0 = no growth, -100 = all killed); conditions: 10 µM unless noted
The panel holds about 83,000 compounds, 20% with a hit somewhere; the sample as a whole holds those more often.

- COMPOUND: "CC[C@]12C=CCN3CC[C@@]4(c5cc(NC(=O)COc6cc(O)c7c(=O)cc(-c8ccccc8)oc7c6)c(OC)cc5N(C)[C@H]4[C@@](O)(C(=O)OC)[C@@H]1OC(C)=O)[C@@H]32"
  growth / %: -77.7
- COMPOUND: "Cc1ccc2c(c1)C13C(=C2Br)CCCN1C(=O)c1ccccc13 (configuration not stated)"
  growth / %: 88.5
- COMPOUND: "NC(N)=Nc1ccc(Oc2cccc(Nc3ccc(Cl)c(C(F)(F)F)c3)c2)cc1"
  growth / %: 17.2
- COMPOUND: "NS(=O)(=O)c1ccc(Nc2nc(SCC(=O)c3ccc(Cl)cc3)nc3c2CCCC3)cc1"
  growth / %: 84.8
- COMPOUND: "NS(=O)(=O)c1ccc(Nc2nc(N/N=C/CCc3ccccc3)nc(Nc3ccccc3)n2)cc1"
  growth / %: 106
- COMPOUND: "CCOc1ccc(C(=O)Nc2ncc(Cc3ccc(F)cc3)s2)cc1"
  growth / %: 40
- COMPOUND: "C=C(C=O)[C@@H]1CC[C@]2(COC(C)=O)CC[C@]3(C)C(CC[C@@H]4[C@@]5(C)CC[C@H](OC(C)=O)C(C)(C)[C@@H]5CC[C@]43C)[C@@H]12 (some centres not stated)"
  growth / %: -32.8
- COMPOUND: "COc1ccc(C2c3sc4c(C)cccc4c3Oc3nc(CC(=O)Nc4ccccc4)[nH]c(=O)c32)cc1 (configuration not stated)"
  growth / %: 47.9
- COMPOUND: "NC(N)=Nc1ccc(Oc2cccc(Oc3ccc(Cl)c(C(F)(F)F)c3)c2)cn1"
  growth / %: -81.7
- COMPOUND: "Nc1ncc(-c2ccc3ncnc(N4CCc5cc(F)c(Cl)cc54)c3c2)cn1"
  growth / %: -11.2
- COMPOUND: "N#Cc1cnc2ccc(-c3cnc(N)nc3)cc2c1N1CCc2cc(F)c(Cl)cc21"
  growth / %: -44.6
- COMPOUND: "CC1=NC2=NN3C(=NN2C(c2ccccc2)=C1)N=NC(c1ccc(Br)cc1)=C3c1ccc(Br)cc1"
  growth / %: 99.3
- COMPOUND: "c1n[nH]cc1-c1nc2ccc3[nH]ncc3c2c2c1CCCC2"
  growth / %: 20.8
- COMPOUND: "CCN1CCN(C(=O)[C@]23CCC(C)(C)C[C@H]2C2=CC[C@@H]4[C@@]5(C)Cc6c([nH]c7ccccc67)C(C)(C)[C@@H]5CC[C@@]4(C)[C@]2(C)CC3)CC1"
  growth / %: 88.7
- COMPOUND: "CN1CCN(Cc2ccc(NC(=O)c3cncc(C#Cc4cnn5cccnc45)c3)cc2C(F)(F)F)CC1"
  growth / %: 5.44
- COMPOUND: "C=CCn1c(SCC(=O)Nc2ccc(C(=O)/C=C/c3cccc([N+](=O)[O-])c3)cc2)nnc1-c1c[nH]c2ccccc12"
  growth / %: 82.7
- COMPOUND: "NC(=O)c1c(NC(=O)c2ccc(F)cc2F)sc2c1CCC(=O)C2"
  growth / %: 50.5
